# assay_summary: Solubility in phosphate buffer (pH 7.0), HPLC of supernatant
# Format: physicochemical
# experimental_context: pH 7, aqueous buffer
endpoint_name: solubility

Find the recorded solubility belonging to COc1ccc(/C=C\c2cc(OC)c(OC)c(OC)c2)cc1O [Combretastatin A-4, reference compound] and report it.
< 100 µg/mL

====

Please respond with reported solubility for every item in the list.
# assay_summary: Solubility in phosphate buffer (pH 7.0), HPLC of supernatant
# Format: physicochemical
# experimental_context: aqueous buffer, pH 7.0, read-out: Solubility in Phosphate Buffer (PH 7.0)
Numbers only, in mg/mL.

COc1ccc(/C=C\c2cc(OC)c(OC)c(OC)c2)cc1N; 34

Here is the next item to consider.
Which solubility is reported for this compound? `COc1ccc(/C=C(/C#N)c2cc(OC)c(OC)c(OC)c2)cc1N`
1.7
